Method Notes: total protein half-life in vivo (active degradation + dilution); higher = more stable protein
Experimental Setup: wild type E. coli NCM3722; growth: C-lim chemostat; doubling time 3 h
Response key: Fulfilled means total protein half-life in vivo >= 3 h; Not fulfilled means total protein half-life in vivo < 3 h.

Before answering, review these 2 worked examples.
Seq String: MRYSKLTMLIPCALLLSACTTVTPAYKDNGTRSGPCVEGGPDNVAQQFYDYRILHRSNDITALRPYLSDKLATLLSDASRDNNHRELLTNDPFSSRTTLPDSAHVASASTIPNRDARNIPLRVDLKQGDQGWQDEVLMIQEGQCWVIDDVRYLGGSVHATAGTLRQSIENR
Class Label: Not fulfilled

Seq String: MATNAKPVYKRILLKLSGEALQGTEGFGIDASILDRMAQEIKELVELGIQVGVVIGGGNLFRGAGLAKAGMNRVVGDHMGMLATVMNGLAMRDALHRAYVNARLMSAIPLNGVCDSYSWAEAISLLRNNRVVILSAGTGNPFFTTDSAACLRGIEIEADVVLKATKVDGVFTADPAKDPTATMYEQLTYSEVLEKELKVMDLAAFTLARDHKLPIRVFNMNKPGALRRVVMGEKEGTLITE [P0A7E9]
Class Label: Fulfilled

IN: Is total protein half-life in vivo at least 3 h? Consider MSTEKEKMIAGELYRSADETLSRDRLRARQLIHRYNHSLAEEHTLRQQILADLFGQVTEAYIEPTFRCDYGYNIFLGNNFFANFDCVMLDVCPIRIGDNCMLAPGVHIYTATHPIDPVARNSGAELGKPVTIGNNVWIGGRAVINPGVTIGDNVVVASGAVVTKDVPDNVVVGGNPARIIKKL
OUT: Fulfilled

IN: Has MSITLSDSAAARVNTFLANRGKGFGLRLGVRTSGCSGMAYVLEFVDEPTPEDIVFEDKGVKVVVDGKSLQFLDGTQLDFVKEGLNEGFKFTNPNVKDECGCGESFHV [P0AAC8] a recorded total protein half-life in vivo greater than or equal to 3 h?
OUT: Not fulfilled
